Target: Neuronal acetylcholine receptor subunit alpha-7 (Rattus norvegicus)
Sequence (Q05941 whole entry): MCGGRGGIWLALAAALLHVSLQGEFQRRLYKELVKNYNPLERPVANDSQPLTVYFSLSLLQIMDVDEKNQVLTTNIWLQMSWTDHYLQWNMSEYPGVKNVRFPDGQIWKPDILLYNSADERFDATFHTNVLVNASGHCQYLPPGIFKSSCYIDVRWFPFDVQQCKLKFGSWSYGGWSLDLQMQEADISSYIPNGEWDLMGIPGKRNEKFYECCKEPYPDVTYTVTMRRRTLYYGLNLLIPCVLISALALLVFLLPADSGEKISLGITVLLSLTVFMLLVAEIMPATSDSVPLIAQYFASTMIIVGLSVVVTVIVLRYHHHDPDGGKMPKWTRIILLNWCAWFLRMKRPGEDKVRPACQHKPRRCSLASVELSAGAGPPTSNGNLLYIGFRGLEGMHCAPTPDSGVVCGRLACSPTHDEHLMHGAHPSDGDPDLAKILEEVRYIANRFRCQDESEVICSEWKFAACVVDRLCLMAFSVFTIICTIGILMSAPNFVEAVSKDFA
Experiment: Displacement of [125I]alpha-bungarotoxin from alpha7nAChR in rat hippocampus membrane
pKi: −log10 of the molar value.
recordedEndpoint: pKi

[[record]]
samplesmiles = "O=C(Nc1ccccc1)c1cncc(N2CC3CC(C2)N3)c1"
comparisonoperator = "="
readoutvalue = 5.62

[[record]]
samplesmiles = "CCc1cccc(NC(=O)c2cncc(N3CC4CC(C3)N4)c2)c1"
comparisonoperator = "<"
readoutvalue = 4.30

[[record]]
samplesmiles = "O=C(Nc1cccc(F)c1)c1cncc(N2CC3CC(C2)N3)c1"
comparisonoperator = "="
readoutvalue = 4.55

[[record]]
samplesmiles = "COc1cc(NC(=O)c2cncc(N3CC4CC(C3)N4)c2)cc(OC)c1"
comparisonoperator = "="
readoutvalue = 4.37

[[record]]
samplesmiles = "O=C(Nc1cccc(Cl)c1)c1cncc(N2CC3CC(C2)N3)c1"
comparisonoperator = "="
readoutvalue = 4.64


---

Molecular target: Neuronal acetylcholine receptor; alpha4/beta2 (Rattus norvegicus, UniProt P09483+P12390)
Sequence (P09483 whole entry): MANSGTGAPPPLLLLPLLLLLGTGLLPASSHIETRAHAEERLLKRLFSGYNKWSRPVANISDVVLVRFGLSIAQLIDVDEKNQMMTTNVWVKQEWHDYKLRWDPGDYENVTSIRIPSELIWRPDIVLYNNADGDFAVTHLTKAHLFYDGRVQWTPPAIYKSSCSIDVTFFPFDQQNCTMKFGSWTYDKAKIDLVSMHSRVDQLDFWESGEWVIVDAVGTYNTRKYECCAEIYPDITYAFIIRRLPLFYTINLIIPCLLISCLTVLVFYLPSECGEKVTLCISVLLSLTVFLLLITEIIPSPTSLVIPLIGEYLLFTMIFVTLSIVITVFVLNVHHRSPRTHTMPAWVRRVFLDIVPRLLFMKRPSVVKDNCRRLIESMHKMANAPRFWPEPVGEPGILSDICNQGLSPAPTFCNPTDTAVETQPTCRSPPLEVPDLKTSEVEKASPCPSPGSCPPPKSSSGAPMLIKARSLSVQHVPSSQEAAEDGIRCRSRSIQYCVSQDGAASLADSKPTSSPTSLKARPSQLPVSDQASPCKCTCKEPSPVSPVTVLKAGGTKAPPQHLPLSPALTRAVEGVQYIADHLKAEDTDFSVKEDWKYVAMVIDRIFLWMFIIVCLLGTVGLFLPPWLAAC
Sequence (P12390 whole entry): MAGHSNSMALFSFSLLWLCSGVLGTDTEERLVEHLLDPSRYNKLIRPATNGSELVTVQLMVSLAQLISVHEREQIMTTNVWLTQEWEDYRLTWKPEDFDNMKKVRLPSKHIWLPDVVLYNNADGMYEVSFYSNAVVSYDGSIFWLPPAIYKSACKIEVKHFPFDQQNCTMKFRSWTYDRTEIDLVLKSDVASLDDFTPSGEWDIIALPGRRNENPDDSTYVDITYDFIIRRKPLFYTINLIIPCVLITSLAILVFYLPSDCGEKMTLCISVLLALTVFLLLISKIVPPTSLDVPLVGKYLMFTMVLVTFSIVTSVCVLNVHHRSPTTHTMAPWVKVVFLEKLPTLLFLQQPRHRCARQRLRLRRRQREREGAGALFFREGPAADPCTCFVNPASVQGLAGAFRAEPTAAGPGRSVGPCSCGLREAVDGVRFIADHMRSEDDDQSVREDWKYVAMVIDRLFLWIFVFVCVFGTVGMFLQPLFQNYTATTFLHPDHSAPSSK
Assay: Displacement of [3H]epibatidine from alpha4beta2 nAChR in rat cerebral cortex membrane
Type: cell membranes
pKi: −log10 of the molar value.
recordedEndpoint: pKi

[[record]]
samplesmiles = "COc1cc(NC(=O)c2cncc(N3CC4CC(C3)N4)c2)cc(OC)c1"
recordedendpoint = "pKi"
readoutvalue = 9.01

[[record]]
samplesmiles = "O=C(Nc1ccc2c(c1)OCO2)c1cncc(N2CC3CC(C2)N3)c1"
recordedendpoint = "pKi"
readoutvalue = 9.97

[[record]]
samplesmiles = "O=C(Nc1ccc(I)cc1)c1cncc(N2CC3CC(C2)N3)c1"
recordedendpoint = "pKi"
readoutvalue = 9.44

[[record]]
samplesmiles = "COc1ccc(NC(=O)c2cncc(N3CC4CC(C3)N4)c2)cc1OC"
recordedendpoint = "pKi"
readoutvalue = 9.08

[[record]]
samplesmiles = "O=C(NCc1ccccc1)c1cncc(N2CC3CC(C2)N3)c1"
recordedendpoint = "pKi"
readoutvalue = 8.74

[[record]]
samplesmiles = "O=C(Nc1ccccc1F)c1cncc(N2CC3CC(C2)N3)c1"
recordedendpoint = "pKi"
readoutvalue = 9.50

[[record]]
samplesmiles = "CCc1cccc(NC(=O)c2cncc(N3CC4CC(C3)N4)c2)c1"
recordedendpoint = "pKi"
readoutvalue = 8.89

[[record]]
samplesmiles = "O=C(Nc1ccccc1)c1cncc(N2CC3CC(C2)N3)c1"
recordedendpoint = "pKi"
readoutvalue = 8.96

[[record]]
samplesmiles = "O=C(Nc1ccc(F)cc1F)c1cncc(N2CC3CC(C2)N3)c1"
recordedendpoint = "pKi"
readoutvalue = 10.29

[[record]]
samplesmiles = "O=C(Nc1ccc(Cl)cc1)c1cncc(N2CC3CC(C2)N3)c1"
recordedendpoint = "pKi"
readoutvalue = 9.39

[[record]]
samplesmiles = "O=C(c1cncc(N2CC3CC(C2)N3)c1)N1CCc2ccccc2C1"
recordedendpoint = "pKi"
readoutvalue = 10.51

[[record]]
samplesmiles = "O=C(Nc1cccc(Cl)c1)c1cncc(N2CC3CC(C2)N3)c1"
recordedendpoint = "pKi"
readoutvalue = 10.38

[[record]]
samplesmiles = "COc1cccc(NC(=O)c2cncc(N3CC4CC(C3)N4)c2)c1"
recordedendpoint = "pKi"
readoutvalue = 9.25

[[record]]
samplesmiles = "O=C(c1cncc(N2CC3CC(C2)N3)c1)N1CCCc2ccccc21"
recordedendpoint = "pKi"
readoutvalue = 9.71

[[record]]
samplesmiles = "O=C(Nc1ccc(F)cc1)c1cncc(N2CC3CC(C2)N3)c1"
recordedendpoint = "pKi"
readoutvalue = 11.00

[[record]]
samplesmiles = "O=C(Nc1cccc(F)c1)c1cncc(N2CC3CC(C2)N3)c1"
recordedendpoint = "pKi"
readoutvalue = 10.36

